// data source = ChEMBL document CHEMBL5365420

- target desc: Metallo-beta-lactamase type 2 (Bacteria, UniProt C7C422)
- Sequence (C7C422 whole entry): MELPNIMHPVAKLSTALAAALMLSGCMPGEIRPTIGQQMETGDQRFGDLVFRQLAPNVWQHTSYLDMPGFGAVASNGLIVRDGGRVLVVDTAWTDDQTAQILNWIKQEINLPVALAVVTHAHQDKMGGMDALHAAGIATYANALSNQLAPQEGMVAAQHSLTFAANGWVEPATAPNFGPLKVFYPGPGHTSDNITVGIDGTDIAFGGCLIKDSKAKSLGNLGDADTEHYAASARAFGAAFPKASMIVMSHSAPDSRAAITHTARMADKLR
Quick list: log10(IC50) per entry.
property label: log10(IC50) (log10 of the value in nM)

smiles notation | log10(IC50)
N#Cc1ccccc1S(=O)(=O)Nc1cccc2ccc(C(=O)O)nc12 | 2.67
O=C(O)c1cccc(C(=O)NOCc2ccccc2)n1 | 4.36
CONC(=O)c1cccc(C(=O)NOC)n1 | 4.93
O=C(NOCc1ccccc1)c1ccc2cccc(O)c2n1 | 4.05
O=C(O)c1ccc2c(Cl)cc(I)c(O)c2n1 | 2.68
O=C(O)c1ccc2cccc(NS(=O)(=O)c3cccc(F)c3)c2n1 | 2.83
O=C(O)c1ccc2cccc(NS(=O)(=O)c3cccc(Cl)c3)c2n1 | 2.70
CS(=O)(=O)Nc1ccc(I)c2ccc(C(=O)O)nc12 | 3.15

###

- target desc: 72 kDa type IV collagenase (Homo sapiens, UniProt P08253)
- Sequence (P08253 whole entry): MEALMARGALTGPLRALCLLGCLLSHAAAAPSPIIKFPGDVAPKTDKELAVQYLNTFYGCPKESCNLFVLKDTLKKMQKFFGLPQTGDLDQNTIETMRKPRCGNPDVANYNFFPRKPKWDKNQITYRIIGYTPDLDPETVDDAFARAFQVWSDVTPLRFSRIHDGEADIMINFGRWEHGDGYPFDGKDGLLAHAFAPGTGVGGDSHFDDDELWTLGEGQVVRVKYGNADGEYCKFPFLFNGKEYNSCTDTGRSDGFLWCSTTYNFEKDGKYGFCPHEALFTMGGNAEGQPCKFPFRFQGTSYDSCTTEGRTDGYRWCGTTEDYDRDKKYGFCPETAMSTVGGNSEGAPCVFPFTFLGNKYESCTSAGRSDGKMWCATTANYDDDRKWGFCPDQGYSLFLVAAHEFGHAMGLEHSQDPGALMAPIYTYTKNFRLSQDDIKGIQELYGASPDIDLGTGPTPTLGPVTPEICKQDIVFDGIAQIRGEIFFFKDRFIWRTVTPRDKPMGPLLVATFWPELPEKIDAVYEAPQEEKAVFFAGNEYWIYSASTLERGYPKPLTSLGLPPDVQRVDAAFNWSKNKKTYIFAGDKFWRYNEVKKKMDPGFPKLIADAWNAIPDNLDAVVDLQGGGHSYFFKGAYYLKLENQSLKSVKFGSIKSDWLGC
- assay explanation: Binding affinity to human recombinant MMP-2 CD assessed as inhibition constant using OMNIMMP as substrate incubated for 30 mins by fluorescence based analysis
property label: log10 of Ki (log10 of the value in µM)

smiles notation | log10 of Ki
O=C(O)c1ccc2cccc(NS(=O)(=O)c3cccc4cccnc34)c2n1 | 1.32
O=C(O)c1ccc2ccc3c(c2n1)NS(=O)(=O)c1ccc(C(F)(F)F)cc1-3 | 1.44
O=C(O)c1ccc2cccc(NS(=O)(=O)c3ccccc3)c2n1 | 0.33
O=C(O)c1cc(-c2ccccc2)c2cccc(NS(=O)(=O)c3ccccn3)c2n1 | 0.84
O=C(O)c1ccc2cccc(NS(=O)(=O)c3ccccn3)c2n1 | 0.76
CS(=O)(=O)Nc1cccc2ccc(C(=O)O)nc12 | 0.61
O=C(O)c1ccc2cccc(NS(=O)(=O)c3ccc(C(F)(F)F)cc3[N+](=O)[O-])c2n1 | -0.22
O=C(O)c1ccc2c(-c3ccccc3)ccc(NS(=O)(=O)c3ccccn3)c2n1 | 0.89

###

- target desc: Metallo-beta-lactamase type 2 (Bacteria, UniProt C7C422)

smiles notation | IC50
Oc1cccc2ccc(-c3ccccc3)nc12 | > 1000 µM
CS(=O)(=O)Nc1c(Cl)cc(Cl)c2ccc(C(=O)O)nc12 | > 1000 µM
O=C(NO)c1cccc(C(=O)NO)n1 | > 1000 µM
